Values were extracted from patent US5859257A.

target: COX-2; assay: Evaluation of COX-2 activity in vitro (PGE2 ELISA, recombinant enzyme); conditions: arachidonic acid 10 μM, pH 8.0, pre-incubation 10-20 minutes
Observation type: IC50 (nM)

A: NS(=O)(=O)c1ccc(-c2c(-c3ccccc3)noc2COc2ccc(C(=O)O)cc2)cc1
B: CC(C)(O)CCCc1onc(-c2ccccc2)c1-c1ccc(S(N)(=O)=O)cc1
I'm curious, which of these has a smaller IC50 number: A or B ? Provide the label of your selected option as the answer.
B
(B: 100 nM, A: 19000 nM)

1: NS(=O)(=O)c1ccc(-c2c(-c3ccccc3)noc2CC(=O)C(F)(F)F)cc1
2: NS(=O)(=O)c1ccc(-c2c(-c3ccccc3)noc2O)cc1
3: NS(=O)(=O)c1ccc(-c2c(CC(O)c3ccc(Cl)cc3)noc2-c2ccccc2)cc1 (stereo not drawn)
Ordering criterion: IC50; begin with the maximum. # respond with the labels, arranged in the requested order
2, 1, 3

I: NS(=O)(=O)c1ccc(-c2c(-c3ccccc3)noc2COCC(=O)O)cc1
II: Cc1onc(-c2cc(F)cc(F)c2)c1-c1ccc(S(N)(=O)=O)cc1
I'm curious, which of these has a smaller IC50 number: I or II ? Provide the label of your selected option as the answer.
I

I: N#Cc1onc(-c2ccccc2)c1-c1ccc(S(N)(=O)=O)cc1
II: Cc1noc(-c2ccc(S(N)(=O)=O)cc2)c1-c1ccccc1
I'm curious, which of these has a smaller IC50 number: I or II ? Provide the label of your selected option as the answer.
II
(II: 200 nM, I: 20000 nM)

---

molecular target: COX-1; assay: Evaluation of COX-1 activity in vitro (PGE2 ELISA, recombinant enzyme); conditions: arachidonic acid 10 μM, pH 8.0, pre-incubation 10-20 minutes
Observation type: IC50

Example cases with answers are listed next.
Hello, please tell me recorded IC50 for this one: "CS(=O)(=O)c1ccc(-c2c(-c3ccccc3)noc2CC(=O)O)cc1"
> 100 µM

Hello, please tell me recorded IC50 for this one: "CCc1noc(-c2cccc(C)c2)c1-c1ccc(S(N)(=O)=O)cc1"
76 µM

Hello, please tell me recorded IC50 for this one: "Cc1ccc(-c2onc(C)c2-c2ccc(S(N)(=O)=O)cc2)cc1"
> 100 µM

Hello, please tell me recorded IC50 for this one: "Cc1noc(-c2cccc(Cl)c2)c1-c1ccc(S(N)(=O)=O)cc1"
> 100 µM

Turning now to a further record.
Hello, please tell me recorded IC50 for this one: NS(=O)(=O)c1ccc(-c2c(CC(O)c3ccc(Cl)cc3)noc2-c2ccccc2)cc1 (centres unmarked)
> 100 µM

---

molecular target: COX-2; assay: Evaluation of COX-2 activity in vitro (PGE2 ELISA, recombinant enzyme); details: arachidonic acid 10 μM, pH 8.0, pre-incubation 10-20 minutes
pIC50: −log10 of the molar value.
Observation type: pIC50

Example cases with answers are listed next.
Hello, please tell me recorded pIC50 for this one: NS(=O)(=O)c1ccc(-c2c(-c3ccccc3)noc2C(=O)O)cc1 [Example 11]
4.46

Hello, please tell me recorded pIC50 for this one: Cc1onc(-c2ccc(Br)cc2)c1-c1ccc(S(N)(=O)=O)cc1 [Example 43]
6.22

I: CS(=O)(=O)c1ccc(-c2c(-c3ccccc3)noc2CO)cc1 [Example 61]
II: COc1ccc(-c2noc(C)c2-c2ccc(S(N)(=O)=O)cc2)cc1F [Example 4]
III: CCc1noc(-c2ccccc2C)c1-c1ccc(S(N)(=O)=O)cc1 [Example 54]
Form: Sort by [pIC50] Order [ ascending ] # respond with the labels, arranged in the requested order
II, III, I

---

target: COX-2; test: Evaluation of COX-2 activity in vitro (PGE2 ELISA, recombinant enzyme); settings: arachidonic acid 10 μM, pH 8.0, pre-incubation 10-20 minutes
pIC50: −log10 of the molar value.
Observation type: pIC50

1: COc1ccc(-c2noc(CC(=O)O)c2-c2ccc(S(C)(=O)=O)cc2)cc1F
2: Cc1onc(-c2ccc(Cl)c(Cl)c2C(=O)O)c1-c1ccc(S(N)(=O)=O)cc1
3: Cc1ccc(-c2onc(C)c2-c2ccc(S(N)(=O)=O)cc2)cc1
4: Cc1noc(-c2ccc(F)cc2)c1-c1ccc(S(N)(=O)=O)cc1
Sort the entries above by pIC50, smallest first. # respond with the labels, arranged in the requested order
1, 3, 4, 2

---

biological target: COX-1; test: Evaluation of COX-1 activity in vitro (PGE2 ELISA, recombinant enzyme); settings: arachidonic acid 10 μM, pH 8.0, pre-incubation 10-20 minutes
pIC50: −log10 of the molar value.
The following compounds are shown together with reported pIC50 values.

Hello, please tell me recorded pIC50 for this one: Cc1noc(-c2ccccc2)c1-c1ccc(S(C)(=O)=O)cc1 [Example 27]
< 4.00

Hello, please tell me recorded pIC50 for this one: CC(C)(O)CCCc1onc(-c2ccccc2)c1-c1ccc(S(N)(=O)=O)cc1 [Example 57]
< 4.00

Hello, please tell me recorded pIC50 for this one: COc1ccc(-c2noc(CC(=O)O)c2-c2ccc(S(C)(=O)=O)cc2)cc1F [Example 6]
< 4.00

Continuing:
Hello, please tell me recorded pIC50 for this one: CCc1noc(-c2cccc(F)c2)c1-c1ccc(S(N)(=O)=O)cc1 [Example 31]
< 4.00

---

target: COX-2; assay: Evaluation of COX-2 activity in vitro (PGE2 ELISA, recombinant enzyme); conditions: arachidonic acid 10 μM, pH 8.0, pre-incubation 10-20 minutes
pIC50: −log10 of the molar value.
Observation type: pIC50

Hello, please tell me recorded pIC50 for this one: "CC(C)Cc1onc(-c2ccccc2)c1-c1ccc(S(N)(=O)=O)cc1"
> 7.00

Hello, please tell me recorded pIC50 for this one: "NS(=O)(=O)c1ccc(-c2c(-c3cccc(F)c3)noc2CC(=O)O)cc1"
> 7.00

Hello, please tell me recorded pIC50 for this one: "COC(=O)c1ccc(OCc2onc(-c3ccccc3)c2-c2ccc(S(N)(=O)=O)cc2)cc1"
> 7.00

Hello, please tell me recorded pIC50 for this one: "CCc1noc(-c2ccc(F)cc2)c1-c1ccc(S(N)(=O)=O)cc1"
> 7.00

Hello, please tell me recorded pIC50 for this one: "CCc1noc(-c2ccc(C)cc2)c1-c1ccc(S(N)(=O)=O)cc1"
5.68

Hello, please tell me recorded pIC50 for this one: "CCCc1onc(-c2ccccc2)c1-c1ccc(S(N)(=O)=O)cc1"
> 7.00

Hello, please tell me recorded pIC50 for this one: "Cc1onc(-c2ccc(Cl)cc2)c1-c1ccc(S(N)(=O)=O)cc1"
> 7.00

Hello, please tell me recorded pIC50 for this one: "CCc1noc(-c2ccccc2)c1-c1ccc(S(N)(=O)=O)cc1"
> 7.00

Turning now to a further record.
Hello, please tell me recorded pIC50 for this one: "NS(=O)(=O)c1ccc(-c2c(CC(=O)O)noc2-c2ccccc2)cc1"
4.16

---

molecular target: COX-2; assay: Evaluation of COX-2 activity in vitro (PGE2 ELISA, recombinant enzyme); conditions: arachidonic acid 10 μM, pH 8.0, pre-incubation 10-20 minutes
Observation type: IC50

Example cases with answers are listed next.
Output reported IC50 of the compound "NS(=O)(=O)c1ccc(-c2c(-c3ccccc3)noc2C(F)F)cc1" on COX-2.
< 0.1 µM

Output reported IC50 of the compound "CCCCc1onc(-c2ccccc2)c1-c1ccc(S(N)(=O)=O)cc1" on COX-2.
< 0.1 µM

Output reported IC50 of the compound "COc1ccc(-c2noc(C(F)F)c2-c2ccc(S(N)(=O)=O)cc2)cc1" on COX-2.
< 0.1 µM

Turning now to a further record.
Output reported IC50 of the compound "Cc1onc(-c2ccncc2)c1-c1ccc(S(N)(=O)=O)cc1" on COX-2.
> 100 µM

---

biological target: COX-2; assay: Evaluation of COX-2 activity in vitro (PGE2 ELISA, recombinant enzyme); settings: arachidonic acid 10 μM, pH 8.0, pre-incubation 10-20 minutes
pIC50: −log10 of the molar value.
Observation type: pIC50

Example cases with answers are listed next.
Output reported pIC50 of the molecule NS(=O)(=O)c1ccc(-c2c(-c3ccccc3)noc2OS(=O)(=O)C(F)(F)F)cc1 [Example 39] on COX-2.
6.05

Output reported pIC50 of the molecule Cc1onc(-c2ccc(S(N)(=O)=O)cc2)c1-c1ccccc1 [Example 41] on COX-2.
4.24

Output reported pIC50 of the molecule Cc1onc(-c2ccccc2)c1-c1ccc(S(C)(=O)=O)cc1 [Example 5] on COX-2.
5.40

1: CC(C)c1noc(-c2ccccc2)c1-c1ccc(S(N)(=O)=O)cc1 [Example 15]
2: CCc1noc(-c2cccc(F)c2)c1-c1ccc(S(N)(=O)=O)cc1 [Example 31]
3: Cc1noc(-c2ccccc2)c1-c1ccc(S(C)(=O)=O)cc1 [Example 27]
4: NS(=O)(=O)c1ccc(-c2c(-c3ccccc3)noc2COCCO)cc1 [Example 60]
Form: Sort by [pIC50] Order [ ascending ] # respond with the labels, arranged in the requested order
3, 2, 4, 1

I: CCCc1onc(-c2ccccc2)c1-c1ccc(S(=O)(=O)O)cc1 [Example 1m]
II: NS(=O)(=O)c1ccc(-c2c(-c3ccccc3)noc2CCCC(=O)O)cc1 [Example 36]
III: NS(=O)(=O)c1ccc(-c2c(-c3ccccc3)noc2CCCO)cc1 [Example 1o]
IV: Cc1onc(-c2ccc(Cl)c(Cl)c2)c1-c1ccc(S(N)(=O)=O)cc1 [Example 67]
Ordering criterion: pIC50; begin with the maximum. # respond with the labels, arranged in the requested order
III, IV, II, I
(III: 7.00, IV: 6.52, II: 5.82, I: 4.29)

P: Cc1onc(-c2ccccc2)c1-c1ccc(S(=O)(=O)O)cc1 [Example 1l]
Q: COc1ccc(-c2noc(C)c2-c2ccc(S(C)(=O)=O)cc2)cc1Cl [Example 7]
R: CCCc1noc(-c2ccccc2)c1-c1ccc(S(N)(=O)=O)cc1 [Example 16]
S: Cc1ccc(-c2noc(C(F)F)c2-c2ccc(S(N)(=O)=O)cc2)cc1 [Example 46]
Form: Sort by [pIC50] Order [ ascending ] # respond with the labels, arranged in the requested order
Q, R, P, S

P: COc1ccc(-c2noc(C(F)F)c2-c2ccc(S(N)(=O)=O)cc2)cc1F [Example 44]
Q: CSc1ccc(-c2noc(C)c2-c2ccncc2)cc1 [Example 40]
Given the listed records, identify the one among P and Q with higher pIC50. Provide the label of your selected option as the answer.
P
